- System: OVCAR8
- method-summary: drug sensitivity score (DSS2) on cancer cell count; higher = more sensitive; extreme values may be limits of the assay
- condition-info: co-cultured fibroblast: BJHTERT; 72 h
Think of 2 DSS as a floor: if drug sensitivity score stands on it or above, it is 1; beneath it, 0.

Exam item: decide whether the reported drug sensitivity score for CN1CCC(CNc2ccc3ncc(-c4cccc(OC(F)(F)F)c4)n3n2)CC1 is at least 2 DSS.
1

Check the entry CCNCCS(=O)(=O)NC[C@@]1(c2ccccc2)SC(NC(=O)C(C)(C)C)=NN1C(=O)C(C)(C)C : does drug sensitivity score equal or exceed 2 DSS?
1

drug sensitivity score >= 2 DSS for CCc1c(C(=O)C(N)=O)c2c(OCC(=O)O)cccc2n1Cc1ccccc1 ?
0

Could you verify whether the entry C[C@@H]1CN(Cc2ccc(F)cc2)[C@@H](C)CN1C(=O)c1cc2c(C(=O)C(=O)N(C)C)cn(C)c2cc1Cl shows drug sensitivity score of no less than 2 DSS?
1

Reported drug sensitivity score reaches at least 2 DSS for NCCNc1ccc(NCCN)c2c1C(=O)c1ccncc1C2=O ?
0

Has Cc1cnc(-c2ccccc2C(C)C)nc1NCc1ccc(-n2ccnn2)cc1 a recorded drug sensitivity score greater than or equal to 2 DSS?
1

Is drug sensitivity score for CN(C)C1CCN(C(=O)c2ccc(NC(=O)Nc3ccc(-c4nc(N5CCOCC5)nc(N5CCOCC5)n4)cc3)cc2)CC1 at or above 2 DSS?
1

Could you tell me if the measured drug sensitivity score of Cn1cc(C[C@@H](N)C(=O)O)c2ccccc21 reaches 2 DSS or more?
0

Is drug sensitivity score for Cc1ccc(F)c(NC(=O)Nc2ccc(-c3cccc4[nH]nc(N)c34)cc2)c1 at or above 2 DSS?
0

# check: drug sensitivity score of Cc1[nH]nc(C(F)(F)F)c1Cc1sc2c(c1C(=O)N1C[C@](C)(O)CO1)c(=O)n(C)c(=O)n2C(C)C is greater than or equal to 2 DSS
0

###

- System: KURAMOCHI
- method-summary: drug sensitivity score (DSS2) on cancer cell count; higher = more sensitive; extreme values may be limits of the assay
- condition-info: co-cultured fibroblast: WI38; 72 h
readout-name: drug sensitivity score (DSS)
Give the quantity in DSS, number only.

Any idea what its drug sensitivity score is? The compound is Cc1cccc(CC(=O)N2CCc3c2ccc(-c2cn(C)c4ncnc(N)c24)c3F)n1
0

# input compound: NC1(c2ccc(-c3nc4ccn5c(=O)[nH]nc5c4cc3-c3ccccc3)cc2)CCC1 ; wanted: its drug sensitivity score
1.4

Fill blank: measured drug sensitivity score of the compound COc1cccc2c1C(=O)c1c(O)c3c(c(O)c1C2=O)C[C@@](O)(C(=O)CO)C[C@@H]3O[C@H]1C[C@H](N)[C@H](O)[C@H](C)O1 is ____.
12.7

What does the record list as drug sensitivity score for CC[C@@H]1C(=O)N(C)c2cnc(Nc3ccc(C(=O)NC4CCN(C)CC4)cc3OC)nc2N1C1CCCC1 ?
25.7

Given C[C@H](Nc1ncnc2[nH]cnc12)c1cc2ccc(F)cc2nc1-c1ccccn1 , state its recorded drug sensitivity score.
0

drug sensitivity score for O[C@H]1CC[C@H](Nc2ncc3nc(Nc4c(F)cc(F)cc4F)n([C@H]4CCOC4)c3n2)CC1 ?
0

For CN1CCN(c2nc(C3=C(c4c[nH]c5ccccc45)C(=O)NC3=O)c3ccccc3n2)CC1 , what is its reported drug sensitivity score?
0.6

Could you share which drug sensitivity score value was measured for CCCc1cc(C)[nH]c(=O)c1CNC(=O)c1cc(-c2ccnc(N3CCN(C)CC3)c2)cc2c1cnn2C(C)C ?
0

Which value of drug sensitivity score has been reported for CCOC(=O)CCNc1cc(N2CCc3ccccc3CC2)nc(-c2ccccn2)n1 in the records?
2.7

Consider the compound NC(=O)c1cccc2cn(-c3ccc([C@@H]4CCCNC4)cc3)nc12 and give its measured drug sensitivity score.
6.8

What measured drug sensitivity score goes with C[C@]12CC[C@@H]3c4ccc(O)cc4C[C@@H](CCCCCCCCC[S+]([O-])CCCC(F)(F)C(F)(F)F)[C@H]3[C@@H]1CC[C@@H]2O (stereo partly drawn) ?
0

What measured drug sensitivity score goes with N#Cc1ccc2[nH]c(O)c(-c3ccc(CN4CCOCC4)cn3)c2c1 ?
0

Reported drug sensitivity score, compound CCCCc1nc2cc(/C=C/C(=O)NO)ccc2n1CCN(CC)CC : ____
20.4

Consider the compound shown here: C/C=C1\NC(=O)[C@H]2CSSCC/C=C/[C@H](CC(=O)N[C@H](C(C)C)C(=O)N2)OC(=O)[C@H](C(C)C)NC1=O What is its recorded drug sensitivity score?
30

// drug sensitivity score lookup, key: CC#CC(=O)N1CC[C@@H](n2c(=O)n(-c3ccc(Oc4ccccc4)cc3)c3c(N)ncnc32)C1
0

Entry O=C(O)CC[C@H]1CC[C@@](c2cc(F)ccc2F)(S(=O)(=O)c2ccc(Cl)cc2)CC1 : reported drug sensitivity score = ?
0

# query: drug sensitivity score of entry CCNC(=O)C[C@@H]1N=C(c2ccc(Cl)cc2)c2cc(OC)ccc2-n2c(C)nnc21
9.9

Suppose we examine the compound CCS(=O)(=O)Nc1ccc(Oc2ccc(F)cc2F)c(-c2cn(C)c(=O)c3[nH]ccc23)c1 ; what drug sensitivity score value has been reported?
21.7

###

- Test system: OVCAR8
- method-summary: drug sensitivity score (DSS2) on cancer cell count; higher = more sensitive; extreme values may be limits of the assay
- condition-info: co-cultured fibroblast: BJHTERT; 72 h
Answer false (0) if drug sensitivity score is under 0.8 DSS, and true (1) if it is 0.8 DSS or more.

Is it the case that Cn1cc(CNCC2CCN(c3ncc(C(=O)NO)cn3)CC2)c2ccccc21 has drug sensitivity score reaching or exceeding 0.8 DSS?
true (1)

Decide: drug sensitivity score of Cn1cc(-c2ccc(F)c(C(F)(F)F)c2)nc1C1CCN(c2ncnc3[nH]ncc23)CC1 >= 0.8 DSS?
false (0)

Does O=C(O)CC[C@H]1CC[C@@](c2cc(F)ccc2F)(S(=O)(=O)c2ccc(Cl)cc2)CC1 have a reported drug sensitivity score of at least 0.8 DSS?
true (1)

Quick check, drug sensitivity score >= 0.8 DSS? C=CC(=O)N1CCC[C@@H](n2nc(-c3ccc(Oc4ccccc4)cc3)c3c(N)ncnc32)C1
true (1)

# bool: drug sensitivity score of C#Cc1cccc(Nc2ncnc3cc4c(cc23)OCCOCCOCCO4)c1 >= 0.8 DSS
false (0)

Has N#CCNC(=O)c1ccc(-c2ccnc(Nc3ccc(N4CCOCC4)cc3)n2)cc1 a recorded drug sensitivity score greater than or equal to 0.8 DSS?
true (1)

Does Cc1cnc(NC(=O)Nc2cc(Br)c(C)cc2OC[C@@H]2CNCCO2)cn1 have a reported drug sensitivity score of at least 0.8 DSS?
false (0)

I'd appreciate it if you could say whether COc1cc2ncnc(Nc3ccc(F)c(Cl)c3)c2cc1OCCCN1CCOCC1 has drug sensitivity score at least equal to 0.8 DSS.
true (1)

Kindly determine if drug sensitivity score recorded for CC(C)[C@H](C(=O)Nc1ccc(C(=O)NO)cc1)c1ccccc1 is above or exactly 0.8 DSS.
true (1)

Form field: drug sensitivity score at least 0.8 DSS? Entry: CCN(CC)Cc1ccc2cc(COC(=O)Nc3ccc(C(=O)NO)cc3)ccc2c1
true (1)

Does CC(C)N(C[C@H]1O[C@@H](n2cnc3c(N)ncnc32)[C@H](O)[C@@H]1O)[C@H]1C[C@@H](CCc2nc3cc(C(C)(C)C)ccc3[nH]2)C1 have a reported drug sensitivity score of at least 0.8 DSS?
false (0)

State whether the measured drug sensitivity score reaches 0.8 DSS, counting equality as reaching it, for CCOC(=O)CCNc1cc(N2CCc3ccccc3CC2)nc(-c2ccccn2)n1
true (1)

Kindly determine if drug sensitivity score recorded for O=C1CCc2c(Oc3ccc4c(c3)[C@@H]3[C@H](O4)[C@H]3c3nc4cc(C(F)(F)F)ccc4[nH]3)ccnc2N1 is above or exactly 0.8 DSS.
true (1)

Item COc1cc2c(Oc3ccc(NC(=O)C4(C(=O)Nc5ccc(F)cc5)CC4)cc3F)ccnc2cc1OCCCN1CCOCC1 with drug sensitivity score of 0.8 DSS or above?
true (1)

Identify whether the reported drug sensitivity score of the following compound is 0.8 DSS or greater: CC(C)Nc1cc(-c2c[nH]c(C(=O)N[C@H](CO)c3cccc(Cl)c3)c2)c(Cl)cn1
true (1)

Hi team, for CN1CCN(c2cc(C(=O)Nc3ccc4c(c3)-c3c(c(C(N)=O)nn3-c3ccc(F)cc3)CC4)c(Cl)cn2)CC1 , is the recorded drug sensitivity score at or above 0.8 DSS?
false (0)

Entry Nc1nc2[nH]cnc2c(=S)[nH]1 : is its drug sensitivity score no less than 0.8 DSS?
true (1)

# check: drug sensitivity score of Cc1cc(Nc2ncnc3ccc(NC4=NC(C)(C)CO4)cc23)ccc1Oc1ccn2ncnc2c1 is greater than or equal to 0.8 DSS
false (0)

Would you say CN1CC[C@H](c2c(O)cc(O)c3c(=O)cc(-c4ccccc4Cl)oc23)[C@H](O)C1 shows drug sensitivity score at minimum 0.8 DSS?
true (1)

Dear colleague, could you confirm whether COc1cc2c(Oc3ccc4[nH]c(C)cc4c3F)ncnc2cc1OCCCN1CCCC1 has drug sensitivity score at or above 0.8 DSS?
false (0)
